Below, each entry is listed alongside its reported microsomal CLint at 1 µM.
experiment: in vitro; conditions: human, liver microsomes, Stability
Description: Metabolic stability in human liver microsomes at 1 uM
Write the value in µL/min/mg as a bare number.

COc1ccc(-n2nnnc2C(F)(F)F)cc1CN[C@H]1CCN(C(=O)C2CCN(C(C)=O)CC2)C[C@H]1c1ccccc1.Cl (racemic)	76
COC(=O)N1CC[C@H](NCc2cc(-n3nnnc3C(F)(F)F)ccc2OC)[C@H](c2ccccc2)C1 (racemic)	199
CCNC(=O)N1CC[C@H](NCc2cc(-n3nnnc3C(F)(F)F)ccc2OCC)[C@H](c2ccccc2)C1 (racemic)	218

For the compound COc1ccc(-n2nnnc2C(F)(F)F)cc1CN[C@H]1CCN(S(C)(=O)=O)C[C@H]1c1ccccc1 (racemic) , what microsomal CLint at 1 µM is on record?
144

For the compound COc1ccc(-n2nnnc2C(F)(F)F)cc1CN[C@H]1CCN(C(=O)CCNC(C)=O)C[C@H]1c1ccccc1.Cl (racemic) , what microsomal CLint at 1 µM is on record?
95

For the compound CCNC(=O)N1CC[C@H](NCc2cc(-n3nnnc3C(F)(F)F)ccc2OC2CC2)[C@H](c2ccccc2)C1 (racemic) , what microsomal CLint at 1 µM is on record?
217

For the compound COc1ccc(-n2nnnc2C(F)(F)F)cc1CN[C@H]1CCN(C(=O)NCC(F)(F)F)C[C@H]1c1ccccc1 (racemic) , what microsomal CLint at 1 µM is on record?
155

For the compound COc1ccc(-n2nnnc2C(F)(F)F)cc1CN[C@@H]1CCN(C(=O)CNC(C)=O)C[C@H]1c1ccccc1 (racemic) , what microsomal CLint at 1 µM is on record?
34

For the compound COc1ccc(-n2nnnc2C(F)(F)F)cc1CN[C@H]1CCN(C(=O)N(C)C)C[C@H]1c1ccccc1 (racemic) , what microsomal CLint at 1 µM is on record?
213

For the compound COc1ccc(-n2nnnc2C(F)(F)F)cc1CN[C@H]1CCN(C(C)=O)C[C@H]1c1ccccc1.Cl (racemic) , what microsomal CLint at 1 µM is on record?
111
